# Tested on: 996289-038-R-J1-PDC complex spheroid viability;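 also: spheroids exposed to the agents for 7 days before readout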
# procedure.details: Anticancer human tumor 996289-038-R-J1-PDC patient-derived colon adenocarcinoma cell line growth inhibition [CLK]
# test.conditions: second compound 1 µM; first compound 0.0316 µM; active compounds read low
# Text: A high-throughput screen of multi-cell type tumor spheroids was designed to identify active combinations of […] and targeted small molecules. Complex spheroids include a stromal component modeled by human endothelial cells (HUVEC) and fibroblasts modeled by human mesenchymal stem cells (MSCs). […] Compounds. […] If the clinical Cmax for an agent had not been determined, the highest concentration tested was 10 microM. […]
assay.readout: viability, T/C (%)
Please state the figure in %; there is no need to write the unit.

The examples below pair each entry with its known result.
INSERT INTO measurements (compound, readout_value) VALUES
  ('Nc1ccccc1NC(=O)c1ccc(CNC(=O)OCc2cccnc2)cc1 + CN1CCN(c2cc(C(=O)Nc3cc4cc(-c5cnn(C)c5)ccc4cn3)ccn2)CC1', 8.94),
  ('COc1ccc([C@@H](O)c2cc(-c3ncnc4cc(N5CCOCC5)ccc34)c(F)cc2Cl)nn1 + CNC(=O)c1ccc(Nc2nc(OC3CCCC3)c3c(-c4ccc5nc(C)oc5c4)c[nH]c3n2)c(OC)c1', 67.8),
  ('CC(=O)O[C@H]1C(=O)[C@@]2(C)[C@H]([C@H](OC(=O)c3ccccc3)[C@]3(O)C[C@H](OC(=O)[C@H](O)[C@@H](NC(=O)c4ccccc4)c4ccccc4)C(C)=C1C3(C)C)[C@]1(OC(C)=O)CO[C@@H]1C[C@@H]2O + CN1CCN(c2cc(C(=O)Nc3cc4cc(-c5cnn(C)c5)ccc4cn3)ccn2)CC1', 2.95),
  ('COc1cccc2c1C(=O)c1c(O)c3c(c(O)c1C2=O)CC(O)(C(=O)CO)CC3OC1CC(N)C(O)C(C)O1 (centres undefined) + CNC(=O)c1ccc(Nc2nc(OC3CCCC3)c3c(-c4ccc5nc(C)oc5c4)c[nH]c3n2)c(OC)c1', 64.8),
  ('COc1ccc([C@@H](O)c2cc(-c3ncnc4cc(N5CCOCC5)ccc34)c(F)cc2Cl)nn1 + CN1CCN(c2cc(C(=O)Nc3cc4cc(-c5cnn(C)c5)ccc4cn3)ccn2)CC1', 3.25);

Reported viability, T/C for CC(=O)O[C@H]1C(=O)[C@@]2(C)[C@H]([C@H](OC(=O)c3ccccc3)[C@]3(O)C[C@H](OC(=O)[C@H](O)[C@@H](NC(=O)c4ccccc4)c4ccccc4)C(C)=C1C3(C)C)[C@]1(OC(C)=O)CO[C@@H]1C[C@@H]2O + CNC(=O)c1ccc(Nc2nc(OC3CCCC3)c3c(-c4ccc5nc(C)oc5c4)c[nH]c3n2)c(OC)c1 was 63.2

Reported viability, T/C for CC(CO)NC(=O)c1cc(-c2ccc(Cl)cc2)nn(-c2cnn(C)c2)c1=O (centres undefined) + CN1CCN(c2cc(C(=O)Nc3cc4cc(-c5cnn(C)c5)ccc4cn3)ccn2)CC1 was 8.41

Reported viability, T/C for CCCS(=O)(=O)Nc1ccc(F)c(C(=O)c2c[nH]c3ncc(-c4ccc(Cl)cc4)cc23)c1F + CNC(=O)c1ccc(Nc2nc(OC3CCCC3)c3c(-c4ccc5nc(C)oc5c4)c[nH]c3n2)c(OC)c1 was 73.2

Reported viability, T/C for C#Cc1c(F)ccc2cc(O)cc(-c3ncc4c(N5CC6CCC(C5)N6)nc(OCC56CCCN5CC(F)C6)nc4c3F)c12 (centres undefined) + CN1CCN(c2cc(C(=O)Nc3cc4cc(-c5cnn(C)c5)ccc4cn3)ccn2)CC1 was 4.83

Reported viability, T/C for CC1COCCN1c1cc(C2(S(C)(=N)=O)CC2)nc(-c2ccnc3[nH]ccc23)n1 (centres undefined) + CNC(=O)c1ccc(Nc2nc(OC3CCCC3)c3c(-c4ccc5nc(C)oc5c4)c[nH]c3n2)c(OC)c1 was 70.3

Reported viability, T/C for COc1c(OCCCN2CCOCC2)ccc2c3n(c(=NC(=O)c4cnc(N)nc4)nc12)CCN3 + CN1CCN(c2cc(C(=O)Nc3cc4cc(-c5cnn(C)c5)ccc4cn3)ccn2)CC1 was 3.03

Reported viability, T/C for CC1(C)CCC(CN2CCN(c3ccc(C(=O)NS(=O)(=O)c4ccc(NCC5CCOCC5)c([N+](=O)[O-])c4)c(Oc4cnc5[nH]ccc5c4)c3)CC2)=C(c2ccc(Cl)cc2)C1 + CNC(=O)c1ccc(Nc2nc(OC3CCCC3)c3c(-c4ccc5nc(C)oc5c4)c[nH]c3n2)c(OC)c1 was 67.2
